Ref: ChEMBL document CHEMBL1201862

tested on: UACC-257; test: NCI tumour cell line growth inhibition, 48 h
Active and inactive are the calls of the source. Cut-off read from the data, not from the text of the source: active = GI50 up to about 1.1 µM and inactive = higher.
Possible outcomes: True for active, False for inactive

| Molecule | Experimental system | Class label |
| --- | --- | --- |
| CCCCCCCCC(=O)NCCN(CCN)C(=O)CCCCCCCC | UACC-257 | False |
| CCCCCCCCCCCCCCCCCCNc1ccn(C2OC(COP(=O)(O)OCC3OC(n4cc(C)c(=O)[nH]c4=O)CC3N=[N+]=[N-])C(O)C2O)c(=O)n1 (stereo unspecified) | UACC-257 | False |
| CN(C)c1ccc(-c2c(C#N)c(S)n(NS(=O)(=O)c3ccccc3)c(=O)c2C#N)cc1 | UACC-257 | False |
| COc1cc2c(c3oc4c(O)cccc4c(=O)c13)CC(C(C)(O)CO)O2 (stereo unspecified) | UACC-257 | False |
| CC(=O)/N=C1/N(/C=C2\C(=O)Oc3ccccc3C2=O)C(=O)/C(=C/c2ccc(NC(C)=O)cc2)N1C | UACC-257 | False |
| c1ccc(N2N=NC3C4CC(C5c6ccccc6C45)C32)cc1 (stereo unspecified) | UACC-257 | False |
| CSCCOC(=O)C(=[N+]=[N-])c1ccc([N+](=O)[O-])cc1 | UACC-257 | False |
| CC(=O)OC(CN1CCN(c2ccccn2)CC1)Cn1sc2nc(C)cc(C)c2c1=O (stereo unspecified) | UACC-257 | False |
| Nc1nnc(CCC(=O)Nc2cc(Cl)ccc2Cl)n1N | UACC-257 | False |
| CCCCCCCCCCCC1=NCCN1 | UACC-257 | False |
| CC(C)(C)OC(=O)NCC(=O)OCc1ccccc1 | UACC-257 | False |
| O=C1N[C@@H]2CCC[C@@H]2[C@@H]1c1ccc(Cl)cc1 | UACC-257 | False |
| COc1cc2nc(-c3cccs3)nc(N3C(c4ccc(O)cc4)=NNC(=O)c4ccccc43)c2cc1OC | UACC-257 | False |
| C=CS(=O)(=O)CCN1CC1 | UACC-257 | False |
| CCCCC(C(=O)NCCNC(=O)CCC(=O)N(C)O)C(=O)NCCNC(=O)CCC(=O)N(C)O | UACC-257 | False |
| Cc1ccc(S(=O)(=O)OC2C(O)C(O)OC2C(c2cc(O)c3c(c2O)C(=O)c2ccccc2C3=O)c2cc(O)c3c(c2O)C(=O)c2ccccc2C3=O)cc1 (stereo unspecified) | UACC-257 | False |
| Nc1nc(N)nc(-c2cnccn2)n1 | UACC-257 | False |
| NCCOc1ccccn1 | UACC-257 | False |
| O=C1C[C@H](c2ccccc2)O[C@@H](c2ccccc2)C1 | UACC-257 | False |
| CCOc1cc2ccc3c4cc(OC)c(OC)cc4cnc3c2cc1OCC | UACC-257 | False |
| CC1(C=O)CC(CCc2ccccc2)NC1Cc1ccc(O)cc1 (stereo unspecified) | UACC-257 | False |
| COc1cc(/C=C2\CCC/C(=C\c3ccc(O)c(OC)c3)C2=O)ccc1O [CYCLOVALONE] | UACC-257 | False |
| OC(c1ccc(C(F)(F)F)cc1)C(F)(F)c1nc2ccccc2o1 (stereo unspecified) | UACC-257 | False |
| COC(=O)C(C(=O)C(=O)Nc1ccc(C)cc1C)c1csc(-n2nc(-c3ccccc3)cc2-c2ccccc2)n1 (stereo unspecified) | UACC-257 | False |
| CC[C@@]1(O)C(=O)OCc2c1cc1n(c2=O)Cc2cc3cc4c(cc3nc2-1)OCO4 | UACC-257 | True |
| O=c1c2ccccc2[nH]n1Cc1ccccc1 | UACC-257 | False |
| Cc1ccc(/C=N/NS(=O)(=O)c2ccc(/C=C3\NC(=O)NC3=O)cc2)cc1 | UACC-257 | False |
| O=C(CCc1cc(O)cc(O)c1)NCCc1cc(O)cc(OCc2ccccc2)c1 | UACC-257 | False |
| O=C(Nc1cccc2ccccc12)Nn1cnnc1 | UACC-257 | False |
| COc1ccc(-c2nc3ncccn3c2-c2ccc(S(C)(=O)=O)cc2)cc1 | UACC-257 | False |
| NC(=S)N/N=C1/CCCC2CCCC[C@@H]12 (stereo partly specified) | UACC-257 | False |
